# Assayed target: full-length beta-Catenin (Uniprot ID P35222) (Homo sapiens (Human)) (UniProt P35222)
# Sequence (P35222 whole entry): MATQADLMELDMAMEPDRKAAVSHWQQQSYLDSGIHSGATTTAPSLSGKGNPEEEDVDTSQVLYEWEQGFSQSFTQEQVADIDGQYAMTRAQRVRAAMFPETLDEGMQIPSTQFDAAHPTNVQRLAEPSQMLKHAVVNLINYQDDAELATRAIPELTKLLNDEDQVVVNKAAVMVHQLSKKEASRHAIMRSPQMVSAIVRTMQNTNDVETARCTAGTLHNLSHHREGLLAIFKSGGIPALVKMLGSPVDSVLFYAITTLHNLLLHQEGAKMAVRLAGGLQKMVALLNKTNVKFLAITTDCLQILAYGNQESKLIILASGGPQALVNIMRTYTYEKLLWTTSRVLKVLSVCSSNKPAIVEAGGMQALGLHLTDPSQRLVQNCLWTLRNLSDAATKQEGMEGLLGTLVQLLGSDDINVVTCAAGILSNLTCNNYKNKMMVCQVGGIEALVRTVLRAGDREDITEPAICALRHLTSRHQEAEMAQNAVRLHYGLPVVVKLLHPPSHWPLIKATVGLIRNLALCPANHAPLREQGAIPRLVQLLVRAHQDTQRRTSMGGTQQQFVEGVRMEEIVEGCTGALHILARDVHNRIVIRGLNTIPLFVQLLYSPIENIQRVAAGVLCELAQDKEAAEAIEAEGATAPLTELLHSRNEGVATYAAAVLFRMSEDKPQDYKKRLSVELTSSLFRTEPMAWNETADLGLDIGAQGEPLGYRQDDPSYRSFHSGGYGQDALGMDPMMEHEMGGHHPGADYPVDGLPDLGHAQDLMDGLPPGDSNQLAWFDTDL
# Assay notes: fluorescence polarization competition; full-length beta-catenin; competitor 5FAM-TCF4(10-53) probe
Starred links: 1 amine or outer side, 2 acyl side, 3 side chain; linkers in the order of their positions; H or OH if unused. Positions of bridges follow the written chain, without caps; N, C: chain ends. Non-standard residues stand in square brackets, D forms with d. Primed or numbered codes have the meaning given here. PyrS2″ = (S)-3-amino-1-((pent-4-en-1-yloxy)carbonyl)pyrrolidine-3-carboxylic acid (stapling residue), C=CCCCOC(=O)N1CC[C@@](N[*:1])(C(=O)[*:2])C1; B5(4) = 2,2-bis(4-pentenyl)glycine = 2-amino-2-(pent-4-en-1-yl)hept-6-enoic acid (stitching residue), C=CCCCC(CCCC=C)(N[*:1])C(=O)[*:2]; Phe(2-Cl) = N[C@@H](Cc1ccccc1Cl)C(=O)O; Bta = N[C@@H](Cc1csc2ccccc12)C(=O)O; αAllylPro = C=CC[C@@]1(C(=O)O)CCCN1; tBuAla = CC(C)(C)C[C@H](N)C(=O)O; 3Thi = N[C@@H](Cc1ccsc1)C(=O)O; S8 = C=CCCCCCC[C@](C)(N)C(=O)O; hSer = N[C@@H](CCO)C(=O)O; Aib = CC(C)(N)C(=O)O
Reported metric: EC50 (nM)

[
  {
    "Binder": "Ac-[αAllylPro]D[tBuAla][B5(4)]DDAAFL[S8][Phe(2-Cl)][Bta][hSer]-NH2 (staple 1-4, 4-11) [I-1196]",
    "Scale unit": "nM",
    "EC50": 85
  }
]

[P] Ac-[αAllylPro]D[tBuAla][B5(4)]DD[Aib]AFL[PyrS2″][3Thi][Bta]Q-NH2 (staple 1-4, 4-11) [I-1177]
[Q] Ac-[αAllylPro]D[tBuAla][B5(4)]DDAAFL[S8][Phe(2-Cl)][Bta]S-NH2 (staple 1-4, 4-11) [I-1189]
// which entry reports the smaller EC50, P or Q ? When you have decided, please share the label of that item.
P
